Numbers sourced from PubChem BioAssay (NCI).

test system: OVCAR-8 ovarian; experiment: NCI tumour cell line growth inhibition, 48 h
measure.name: TGI (µM)
API: value field is a number in µM; no unit string.

molecule C=C(C)C12OC1[C@@]1(C)C(=CC2=O)CCC(O)[C@@H]1C (stereo not given in full) , TGI observed: 8.24

molecule "C/C=C/[C@@H]1O[C@@H]2COC(=O)C2=C[C@@H]1O" , TGI observed: 51.8

molecule COCCOCOC(CCCCO)c1cc(C)c(O[Si](C)(C)C(C)(C)C)c(C)c1 (stereo not given) , TGI observed: 18.7

molecule "CC(C)(CN1CCCCC1)C(/C=C/c1ccc(Cl)cc1)=N\NC(=O)N/N=C(/C=C/c1ccc(Cl)cc1)C(C)(C)CN1CCCCC1" , TGI observed: 23.1

###

test system: A549 NSCLC; assay: NCI tumour cell line growth inhibition, 48 h
measure.name: TGI (µM)
API: value field is a number in µM; no unit string.

With A549 NSCLC as the test system, "N=c1oc2ccccc2cc1C(=O)NC12CC3CC(CC(C3)C1)C2" showed TGI of 73.1

With A549 NSCLC as the test system, Cc1cn(C2OC(CO[Si](C)(C)C(C)(C)C)C(N(C)O[Si](C)(C)C(C)(C)C)C2[Se]c2ccccc2)c(=O)[nH]c1=O (stereo not given) showed TGI of 49.5

###

tested on: OVCAR-4 ovarian; assay: NCI tumour cell line growth inhibition, 48 h
Provide the reported TGI of each item.

compound "COc1ccc(/C=C/COC(C)=O)cc1OC" , TGI observed: > 100 µM

compound CN(C)CC(O)c1ccc(/C=C/c2ccc(Cl)cc2)cc1 (centres undefined) , TGI observed: 6.58 µM

compound "Cc1nnc2ccnn2c1C" , TGI observed: > 100 µM

compound "CC(=O)OCCOCNC(=S)N/N=C/c1ccc([N+](=O)[O-])o1" , TGI observed: > 100 µM

###

Provide the reported log10 of TGI of each item.
system: MDA-MB-231 breast; experiment: NCI tumour cell line growth inhibition, 48 h
Friendly reminder: values = log10 of TGI, unit µM.

compound "O=[N+]([O-])c1ccc2nc(Nc3ccccc3)c(Nc3ccccc3)nc2c1" , log10 of TGI observed: 0.42

compound "C=C1c2nc3ccccc3n2C=C(c2ccc(OC)cc2)N1c1ccc(OC)cc1" , log10 of TGI observed: 1.88

compound "N#CSC#CCCC#CSC#N" , log10 of TGI observed: 1.62

compound "O=C1/C(=C\c2ccc(Cl)cc2Cl)Sc2scc(-c3ccc(O)c(O)c3)[n+]21" , log10 of TGI observed: 1.79

compound "CSC(=O)c1sc(SC)[n+](-c2ccccc2)c1O" , log10 of TGI observed: 1.59

compound "Fc1cc(-c2nnc3n2N=C(c2ccc(Cl)cc2)CS3)c(Cl)cc1Cl" , log10 of TGI observed: 1.26

compound "c1ccc(-c2n(Cc3ccc4ccccc4n3)cc[n+]2Cc2ccc3ccccc3c2)cc1" , log10 of TGI observed: 0.52

###

tested on: HCC-2998 colon; assay: NCI tumour cell line growth inhibition, 48 h
Provide the reported TGI of each item.

compound "C=C1c2nc3ccccc3n2C=C(c2ccc(OC)cc2)N1c1ccc(OC)cc1" , TGI observed: > 100 µM

compound "CCOC(=O)c1cn2c(n1)sc1cc(F)ccc12" , TGI observed: > 100 µM

compound "CC1(C)[C@@H](NOCCCN)CC[C@]2(C)[C@H]3C(=O)C=C4[C@@H]5C[C@](C)(C(=O)O)CC[C@]5(C)CC[C@@]4(C)[C@]3(C)CC[C@@H]12" , TGI observed: 13.1 µM

compound "Oc1ccc(NCn2c(=S)sc3ccccc32)cc1" , TGI observed: > 100 µM

compound "Nc1nc2[nH]cc(CCc3ccc(C(=O)N[C@@H](CCC(=O)O)C(=O)O)cc3)c2c(=O)[nH]1" , TGI observed: > 100 µM

compound O=S1C(=c2ccc(=C3Sc4ccccc4S3)cc2)Sc2ccccc21 (stereo not given) , TGI observed: 30.3 µM

compound COC(=O)c1cccc(C)c1C1CN=NC12Cc1cc(C)cc(C)c1C2=O (stereo not given) , TGI observed: 76.7 µM

compound "COc1cc(-c2nc3sccn3c2-c2ccnc(NCCNS(=O)(=O)c3ccc(F)cc3)n2)ccc1F" , TGI observed: > 100 µM

compound CN(C)C=Nc1nc(=O)n(C2CCC(CO)O2)cc1F (stereo not given) , TGI observed: > 100 µM

compound COc1cc2c(cc1OC)-c1cc(OC)c(OC)cc1C(CN(C)C)C2 (stereo not given) , TGI observed: > 10 µM

compound "c1ccc(Nc2ncc(-c3ccccc3)o2)cc1" , TGI observed: > 25 µM

compound C[C@@]1(O)CC[C@]2(C)C3CCCC3[C@H]12 (stereo not given in full) , TGI observed: > 100 µM

compound COc1ccc(C2Oc3cc(OC)c(OC)cc3C2CCl)cc1OC (stereo not given) , TGI observed: > 100 µM

compound Cc1ccc(S(=O)(=O)N2C3C=CC(C3)[C@@H]2C(Cl)(Cl)Cl)cc1 (stereo not given in full) , TGI observed: 48.7 µM

compound CON(C)C(=O)C(C)N(Cc1ccccc1)Cc1ccccc1 (stereo not given) , TGI observed: > 100 µM

compound "COC(=O)/C=C/c1cc(OC(C)=O)c2c(c1)[C@@H](C(=O)OC)[C@H](c1ccc(OC(C)=O)c(OC(C)=O)c1)O2" , TGI observed: 22 µM

compound "COC(=O)[C@]12CC[C@@H](C)[C@H](C)[C@@H]1C1=CC[C@@H]3[C@@]4(C)C[C@@H](O)[C@H](O)[C@@](C)(CO)[C@@H]4[C@H](O)C[C@@]3(C)[C@]1(C)CC2" , TGI observed: 31.2 µM

compound "CCCCCCc1cc2cc(-c3cn4ccsc4n3)c(=O)oc2cc1O" , TGI observed: > 100 µM

compound "O=C1C(Br)=C(Br)C(=O)c2ccc(=O)ccc21" , TGI observed: > 100 µM

compound "Cc1[nH]c(=O)nc2sc(=NC3CCCCC3)n(C3CCCCC3)c(=O)c12" , TGI observed: > 100 µM
